FYI, the data here is from the supplement of paper PMC10567573.

B1: PPP2R2B (parent)
chain: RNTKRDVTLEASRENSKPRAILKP

variants of: B1; assay: protein stability index of a GFP-peptide fusion (GPS, HEK-293T) (PSI 1-6); higher = more stable; details: c terminus: a fixed tail appended;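 also: lentivirally expressed fusions sorted by FACS into six bins by GFP to DsRed ratio, PSI derived from sequencing read proportions per bin multiplied by bin number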
readout.label: protein stability index
Answers are plain numbers.

S12P: 4.45
L9E: 4.78
R19W: 3.98
A11Q: 4.28

# map each variant to its protein stability index
1. L9T
2. E10G
3. V7H
4. T8V
5. R13I
6. T8R
7. D6S

1. 4.96
2. 4.32
3. 4.67
4. 4.25
5. 4.53
6. 4.68
7. 4.55

# map each variant to its protein stability index
1. S16K
2. L22H
3. K17A

4.23
4.8
4.66
